Test: self-splicing fitness, log relative to wild type (ln ratio); higher = more splicing; Tetrahymena group I intron in knt gene, E. coli kanamycin selection, DiMSum; sequences stand for … in CUCUCU…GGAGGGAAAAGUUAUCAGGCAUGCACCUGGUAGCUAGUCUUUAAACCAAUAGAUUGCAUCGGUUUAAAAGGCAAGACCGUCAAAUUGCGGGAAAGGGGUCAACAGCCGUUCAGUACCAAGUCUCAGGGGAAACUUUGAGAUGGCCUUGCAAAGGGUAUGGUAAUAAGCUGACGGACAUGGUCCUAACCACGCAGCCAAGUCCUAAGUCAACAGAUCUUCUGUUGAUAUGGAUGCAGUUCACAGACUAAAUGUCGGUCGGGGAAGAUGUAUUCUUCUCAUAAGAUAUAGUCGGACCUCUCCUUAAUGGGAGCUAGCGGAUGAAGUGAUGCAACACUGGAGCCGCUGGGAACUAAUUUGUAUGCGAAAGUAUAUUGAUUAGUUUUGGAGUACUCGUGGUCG;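 further: selection with 25 µg/mL kanamycin versus none on LB agar overnight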
Details: 30 °C

sequence_data: AUACAGCAAUAUUACGAAUU
self-splicing fitness (ln): -2.71

sequence_data: CCAUAGCAAUAUUACGUGGC
self-splicing fitness (ln): -4.63

sequence_data: AGUUAGCAAUAUUACGUACC
self-splicing fitness (ln): -0.585

sequence_data: CCGCAGCAAUAUUACGGACU
self-splicing fitness (ln): -3.14

sequence_data: UAUCAGCAAUAUUACGAACC
self-splicing fitness (ln): -1.66

sequence_data: GAGAAGCAAUAUUACGGACG
self-splicing fitness (ln): -0.812

sequence_data: CUCAAGCAAUAUUACGGCUG
self-splicing fitness (ln): -3.41

sequence_data: UAAAAGCAAUAUUACGCACU
self-splicing fitness (ln): -0.274

sequence_data: GUCGAGCAAUAUUACGGGCU
self-splicing fitness (ln): -2.06

sequence_data: CUGGAGCAAUAUUACGUUCG
self-splicing fitness (ln): -4.29

sequence_data: UUCCAGCAAUAUUACGCUUG
self-splicing fitness (ln): -2.97

sequence_data: UUGCAGCAAUAUUACGGAGU
self-splicing fitness (ln): -4.51

sequence_data: CUUAAGCAAUAUUACGCGAG
self-splicing fitness (ln): -4.13

sequence_data: GUAGAGCAAUAUUACGUCCG
self-splicing fitness (ln): -2.26

sequence_data: AAGUAGCAAUAUUACGUACU
self-splicing fitness (ln): -0.863

sequence_data: AGCCAGCAAUAUUACGCCUU
self-splicing fitness (ln): -1.59

sequence_data: AACGAGCAAUAUUACGACUA
self-splicing fitness (ln): -1.81

sequence_data: UCAAAGCAAUAUUACGGGGC
self-splicing fitness (ln): -2.18

sequence_data: AUUGAGCAAUAUUACGGCAG
self-splicing fitness (ln): -2.56

sequence_data: AGUUAGCAAUAUUACGUGUC
self-splicing fitness (ln): -2.09

sequence_data: CUCAAGCAAUAUUACGGUCA
self-splicing fitness (ln): -3.19

sequence_data: ACCAAGCAAUAUUACGGGUU
self-splicing fitness (ln): -4.06

sequence_data: AGACAGCAAUAUUACGCUGU
self-splicing fitness (ln): -4.06

sequence_data: UGCUAGCAAUAUUACGUGUU
self-splicing fitness (ln): -3.87

sequence_data: CUUUAGCAAUAUUACGUCAA
self-splicing fitness (ln): -2.48

Hello, the source for this data is the supplement of paper PMC7877785, in case you need it.
